Value source: ChEMBL document CHEMBL1268983

Consider the following pIC50 values measured on Procathepsin L (Homo sapiens).
pIC50: −log10 of the molar value.
Reported Metric: pIC50

The following molecules have reported results that may help.
smiles_record=NC(=S)N/N=C(/c1cccc(Br)c1)c1cc(Br)cs1 quantitative_result=6.09
smiles_record=NC(=S)N/N=C(\Cc1ccccc1)c1ccccc1 quantitative_result=5.27

(a) NC(=S)N/N=C(/c1cccc(Br)c1)c1ccc(Br)s1
(b) COc1ccc(/C(=N\NC(N)=S)c2cc(OC)c(OC)c(OC)c2)cc1O
Lower value for measured pIC50? Options: a , b The response must carry the label of the picked entry. b
(b: 5.44, a: 6.03)

====

Consider the following IC50 values measured on Cathepsin B (Homo sapiens, UniProt P07858).

molecule=NC(=S)N/N=C(/c1cccc(Br)c1)c1ccc(O)c(Br)c1 reported_metric=IC50 result="9.49 µM"

Query the reported IC50 for Cathepsin B (Homo sapiens, UniProt P07858); item: NC(=S)N/N=C(/c1cccc(Br)c1)c1cc(Br)cs1 > 10 µM

Query the reported IC50 for Cathepsin B (Homo sapiens, UniProt P07858); item: NC(=S)N/N=C(/c1cccc(Br)c1)c1sccc1Br > 10 µM

Query the reported IC50 for Cathepsin B (Homo sapiens, UniProt P07858); item: NC(=S)N/N=C(\c1cccnc1)c1cccc(Br)c1 > 10 µM

Query the reported IC50 for Cathepsin B (Homo sapiens, UniProt P07858); item: NC(=S)NN=C(c1ccccc1)c1ccccc1 [BENZOPHENONE-THIOSEMICARBAZONE] > 10 µM

Query the reported IC50 for Cathepsin B (Homo sapiens, UniProt P07858); item: NC(=S)N/N=C(/c1cccc(Br)c1)c1cc(O)cc(Br)c1 > 10 µM

Query the reported IC50 for Cathepsin B (Homo sapiens, UniProt P07858); item: NC(=S)N/N=C(/c1cccc(Br)c1)C1CCCCC1 > 10 µM

Query the reported IC50 for Cathepsin B (Homo sapiens, UniProt P07858); item: NC(=S)NN=C1c2ccccc2-c2ccccc21 > 10 µM

Query the reported IC50 for Cathepsin B (Homo sapiens, UniProt P07858); item: NC(=S)N/N=C(/c1ccccc1)c1cccc(O)c1 > 10 µM

Query the reported IC50 for Cathepsin B (Homo sapiens, UniProt P07858); item: NC(=S)N/N=C(/c1cccc(Br)c1)c1ccc2c(c1)CCCC2 > 10 µM

Query the reported IC50 for Cathepsin B (Homo sapiens, UniProt P07858); item: COc1ccc(/C(=N\NC(N)=S)c2cc(OC)c(OC)c(OC)c2)cc1O 1.42 µM

Query the reported IC50 for Cathepsin B (Homo sapiens, UniProt P07858); item: CC(C)(C)[Si](C)(C)Oc1ccc(/C(=N\NC(N)=S)c2cccc(Br)c2)cc1Br > 10 µM

====

target: Procathepsin L (Homo sapiens, UniProt P07711); assay: Inhibition of human liver cathepsin L after 5 mins by microplate reader analysis
Sequence (P07711 whole entry): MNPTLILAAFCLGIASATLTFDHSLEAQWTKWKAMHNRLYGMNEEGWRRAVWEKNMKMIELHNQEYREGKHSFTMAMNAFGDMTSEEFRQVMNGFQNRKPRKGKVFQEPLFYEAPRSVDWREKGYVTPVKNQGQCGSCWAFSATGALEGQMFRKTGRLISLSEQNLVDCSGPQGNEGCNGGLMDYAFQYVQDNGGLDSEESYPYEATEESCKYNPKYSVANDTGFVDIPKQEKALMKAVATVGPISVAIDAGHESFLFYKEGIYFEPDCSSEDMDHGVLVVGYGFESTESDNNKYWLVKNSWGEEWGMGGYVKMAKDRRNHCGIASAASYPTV
Entries and their measured IC50 follow.

smiles_record=NC(=S)N/N=C(/c1cccc(Br)c1)c1cccc(Br)c1O result="> 10000 nM"
smiles_record=CC(C)(C)[Si](C)(C)Oc1ccc(/C(=N\NC(N)=S)c2cccc(Br)c2)cc1Br result="> 10000 nM"
smiles_record=NC(=S)N/N=C(/c1cccc(Br)c1)c1ccc(O)c(Br)c1 result="126 nM"

For the compound shown here, NC(=S)N/N=C(/c1cccc(Br)c1)c1cccc(OCc2ccccc2)c1 , give the reported IC50. > 10000 nM

For the compound shown here, CC(=O)Oc1cccc(/C(=N\NC(N)=S)c2cccc(Br)c2)c1 , give the reported IC50. 151 nM

For the compound shown here, NC(=S)N/N=C(/c1cccc(Br)c1)c1sccc1Br , give the reported IC50. 370 nM

For the compound shown here, NC(=S)N/N=C(/c1cccc(Br)c1)c1cccnc1Br , give the reported IC50. > 10000 nM

For the compound shown here, NC(=S)NN=C1c2cc(Br)ccc2-c2ccc(Br)cc21 , give the reported IC50. > 10000 nM
